- Test system: Staphylococcus aureus
- Protocol Summary: Minimum inhibitory concentration, serial dilution
- Format: cell-based
- Condition Set: Staphylococcus aureus, Muller Hinton broth, 37 °C, 18 to 24 h
Assay Readout: MIC (µg/mL)
Give your result in µg/mL as a bare value.

Below, each entry is followed by its recorded MIC result.
- O=C(Nc1nc2ccccc2s1)c1cc(N=Nc2nccs2)ccc1O: 20
- O=C(Nc1ccc(S(=O)(=O)c2nccs2)cc1)c1cc(N=Nc2nccs2)ccc1O: 10
- O=C(Nc1nccs1)c1cc(N=Nc2nccs2)ccc1O: 10
- O=C(O)c1cc(N=Nc2nccs2)ccc1O: 10

# context switch: different compound, same MIC
Q: I'd like to know its MIC. The compound in question is CC[C@H]1OC(=O)[C@H](C)[C@@H](O[C@H]2C[C@@](C)(OC)[C@@H](O)[C@H](C)O2)[C@H](C)[C@@H](O[C@@H]2O[C@H](C)C[C@H](N(C)C)[C@H]2O)[C@](C)(O)C[C@@H](C)CN(C)[C@H](C)[C@@H](O)[C@]1(C)O [azithromycin, reference compound]
A: 40

---

- Test system: Bacillus cereus
- Protocol Summary: Disk diffusion inhibition zones
- Format: cell-based
- Condition Set: 24 h
Assay Readout: zone of inhibition at 1000 µg/mL (mm)
A number alone suffices; assume mm.

Q: What value of zone of inhibition at 1000 µg/mL has been reported for the following compound? CC[C@H]1OC(=O)[C@H](C)[C@@H](O[C@H]2C[C@@](C)(OC)[C@@H](O)[C@H](C)O2)[C@H](C)[C@@H](O[C@@H]2O[C@H](C)C[C@H](N(C)C)[C@H]2O)[C@](C)(O)C[C@@H](C)CN(C)[C@H](C)[C@@H](O)[C@]1(C)O [azithromycin, reference compound]
A: 11

Q: Quick one: zone of inhibition at 1000 µg/mL for O=C(Nc1nccs1)c1cc(N=Nc2nccs2)ccc1O ?
A: 10

Q: Returns the measured zone of inhibition at 1000 µg/mL for the input compound. Input: O=C(O)c1cc(N=Nc2nccs2)ccc1O
A: 10

Q: Returns the measured zone of inhibition at 1000 µg/mL for the input compound. Input: O=C(Nc1ccc(S(=O)(=O)c2nccs2)cc1)c1cc(N=Nc2nccs2)ccc1O
A: 10

Q: Can you share its zone of inhibition at 1000 µg/mL? I mean this compound: O=C(Nc1nc2ccccc2s1)c1cc(N=Nc2nccs2)ccc1O
A: 10

---

- Tested on: Staphylococcus epidermidis
- Protocol Summary: Disk diffusion inhibition zones
- Format: cell-based
- Condition Set: 24 h
Here, each record is paired with measured zone of inhibition at 1000 µg/mL data.
Report the figure in mm without appending any unit label.

Here is how some molecules turned out for zone of inhibition at 1000 µg/mL.
* O=C(Nc1nc2ccccc2s1)c1cc(N=Nc2nccs2)ccc1O | 14
* O=C(Nc1ccc(S(=O)(=O)c2nccs2)cc1)c1cc(N=Nc2nccs2)ccc1O | 12
* O=C(O)c1cc(N=Nc2nccs2)ccc1O | 14
* O=C(Nc1nccs1)c1cc(N=Nc2nccs2)ccc1O | 18

// moving on: another record for zone of inhibition at 1000 µg/mL
Q: Record request: zone of inhibition at 1000 µg/mL value, item CC[C@H]1OC(=O)[C@H](C)[C@@H](O[C@H]2C[C@@](C)(OC)[C@@H](O)[C@H](C)O2)[C@H](C)[C@@H](O[C@@H]2O[C@H](C)C[C@H](N(C)C)[C@H]2O)[C@](C)(O)C[C@@H](C)CN(C)[C@H](C)[C@@H](O)[C@]1(C)O [azithromycin, reference compound]
A: 11
